Sourced from patent US20260167731A1

Target: pm1, modified CCR8 related peptide (human, sulfated tyrosine at Y15)
Sequence (peptide, as listed by the source): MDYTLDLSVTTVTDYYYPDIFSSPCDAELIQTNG
Test: ELISA on coated CCR8 peptide (500 ng/mL), OD [cont.]
Value kind: binding result

Problem: Entry humanized anti-CCR8 mAb 2-14 (antibody, human IgG1, kappa, V domains shown, Humanized, human IgG1 / kappa) VH: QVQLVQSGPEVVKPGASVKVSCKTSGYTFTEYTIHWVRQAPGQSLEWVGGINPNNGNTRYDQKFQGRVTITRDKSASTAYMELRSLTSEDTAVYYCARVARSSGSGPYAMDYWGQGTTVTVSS VL: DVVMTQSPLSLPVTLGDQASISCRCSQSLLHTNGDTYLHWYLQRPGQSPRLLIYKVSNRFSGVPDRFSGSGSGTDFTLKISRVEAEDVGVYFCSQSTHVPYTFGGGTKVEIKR : reported binding result = ?
Result: binds

Problem: What value of binding result has been reported for the following binder? humanized anti-CCR8 mAb 2-15 (antibody, human IgG1, kappa, V domains shown, Humanized, human IgG1 / kappa) VH: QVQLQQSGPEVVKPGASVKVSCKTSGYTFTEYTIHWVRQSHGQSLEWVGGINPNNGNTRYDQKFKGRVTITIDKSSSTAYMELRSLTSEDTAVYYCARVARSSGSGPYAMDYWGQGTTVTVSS VL: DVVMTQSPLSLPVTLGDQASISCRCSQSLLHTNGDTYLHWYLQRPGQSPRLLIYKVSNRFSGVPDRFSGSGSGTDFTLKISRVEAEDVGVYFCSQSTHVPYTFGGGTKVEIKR
Result: binds

Problem: So what's the measured binding result for this one? anti-CCR8 mAb 2-4 (antibody, V domains shown) VH: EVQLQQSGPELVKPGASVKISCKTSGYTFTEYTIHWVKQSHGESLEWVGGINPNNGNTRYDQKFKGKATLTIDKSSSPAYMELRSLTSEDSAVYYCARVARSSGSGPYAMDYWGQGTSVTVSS VL: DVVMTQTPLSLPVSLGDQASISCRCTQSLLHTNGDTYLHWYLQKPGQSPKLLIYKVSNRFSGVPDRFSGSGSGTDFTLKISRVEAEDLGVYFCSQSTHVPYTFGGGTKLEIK
Result: binds
